Origin of values: paper PMC11117691

SYSTEM NAME: hCB2R (Homo sapiens)
MEASUREMENT DESCRIPTION: TR-FRET saturation binding assay at CB2R
Design: expressed in transfected cells; host or cells: HEK293-TR cells, tetracycline-induced; membrane preparations
STUDY CONDITIONS: TR-FRET, room temperature, HEK293 membranes of SNAP-Lumi4-Tb labeled hCB2R
READOUT TYPE: pKd
One number for each entry, as −log10 of the molar value.

COMPOUND	pKd
C#CCCC(=O)NCC1=CC(c2c(OC)cc(C(C)(C)C(CCCCCN=[N+]=[N-])c3ccccc3)cc2OC)C2CC1C2(C)C [(R)-3]	9.38
COc1cc(C(C)(C)C(CCCCCN=[N+]=[N-])c2ccccc2)cc(OC)c1C1C=C(CN)C2CC1C2(C)C [(R)-1]	7.41

I would be grateful if you could provide pKd for each of the following entries.
1. C#CCCC(=O)NCC1=CC(c2c(OC)cc(C(C)(C)C(CCCCCN=[N+]=[N-])c3ccccc3)cc2OC)C2CC1C2(C)C [(S)-3]
2. COc1cc(C(C)(C)C(CCCCCN=[N+]=[N-])c2ccccc2)cc(OC)c1C1C=C(CN)C2CC1C2(C)C [(S)-1]

Response:
1. 8.68
2. 6.32

---

Can you tell me τ (receptor residence time) for the items I'm about to list?
SYSTEM NAME: UniProt P34972
MEASUREMENT DESCRIPTION: TR-FRET kinetic binding assay at CB2R
Design: expressed in transfected cells; host or cells: HEK293-TR cells, tetracycline-induced; membrane preparations
STUDY CONDITIONS: 37 °C, hCB2R-HEK293 membranes, mean N = 3
The reply should read as a number followed by its unit.

Observe how each entry below is paired with its result.
MOLECULE	READOUT TYPE	RESULT
C#CCCC(=O)NCC1=CC(c2c(OC)cc(C(C)(C)C(CCCCCN=[N+]=[N-])c3ccccc3)cc2OC)C2CC1C2(C)C [(R)-3]	τ (receptor residence time)	43.7 min
COc1cc(C(C)(C)C(CCCCCN=[N+]=[N-])c2ccccc2)cc(OC)c1C1C=C(CN)C2CC1C2(C)C [(S)-1]	τ (receptor residence time)	0.87 min
C#CCCC(=O)NCC1=CC(c2c(OC)cc(C(C)(C)C(CCCCCN=[N+]=[N-])c3ccccc3)cc2OC)C2CC1C2(C)C [(S)-3]	τ (receptor residence time)	20.2 min

Proceed to the following item.
Query: Give recorded τ (receptor residence time). COc1cc(C(C)(C)C(CCCCCN=[N+]=[N-])c2ccccc2)cc(OC)c1C1C=C(CN)C2CC1C2(C)C [(R)-1]
Response: 7.19 min

---

SYSTEM NAME: hCB2R (Homo sapiens, UniProt P34972)
Sequence (P34972 whole entry): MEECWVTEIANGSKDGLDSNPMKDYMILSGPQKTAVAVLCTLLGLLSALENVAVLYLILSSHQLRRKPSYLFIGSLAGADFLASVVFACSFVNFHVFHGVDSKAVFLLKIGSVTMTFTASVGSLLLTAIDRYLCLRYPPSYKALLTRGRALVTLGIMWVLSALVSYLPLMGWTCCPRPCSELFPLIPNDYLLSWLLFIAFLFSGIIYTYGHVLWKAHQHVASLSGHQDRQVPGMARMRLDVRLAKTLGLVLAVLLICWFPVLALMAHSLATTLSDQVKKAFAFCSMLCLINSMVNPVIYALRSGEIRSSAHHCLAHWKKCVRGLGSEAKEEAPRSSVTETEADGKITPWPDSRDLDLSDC
MEASUREMENT DESCRIPTION: Radioligand binding assay with [3H]-CP55,940
STUDY CONDITIONS: [3H]-CP55,940 competition, CHO-hCB2R membranes, 2 h at 30 °C
Experimental: For bindings experiments CHO cells stably expressing the human CB2R were used.14 […] Radioligand binding assays were performed with [3H]-CP55,940 (Perkin Elmer, Austria) . […]
READOUT TYPE: Ki (pM)
Give bare numbers, in pM.

Query: Fill in Ki for C#CCCC(=O)NCC1=CC(c2c(OC)cc(C(C)(C)C(CCCCCN=[N+]=[N-])c3ccccc3)cc2OC)C2CC1C2(C)C [(R)-3] tested with hCB2R (Homo sapiens, UniProt P34972).
Response: 660

---

Can you tell me EC50 for the items I'm about to list?
SYSTEM NAME: hCB2R (Homo sapiens)
MEASUREMENT DESCRIPTION: BRET Gi-CASE G protein recruitment membrane assay
Type: biochemical
Design: expressed in transfected cells; host or cells: HEK293-TR cells, tetracycline-induced; membrane preparations
STUDY CONDITIONS: hCB2R-HEK293 T-REx membranes, mean N = 3–4; read-out: pEC50 (Gi-CASE G protein recruitment) (converted)
One number for each entry, in nM.

Observe how each entry below is paired with its result.
MOLECULE	UNIT STRING	EC50
COc1cc(C(C)(C)C(CCCCCN=[N+]=[N-])c2ccccc2)cc(OC)c1C1C=C(CN)C2CC1C2(C)C [(R)-1]	nM	158
C#CCCC(=O)NCC1=CC(c2c(OC)cc(C(C)(C)C(CCCCCN=[N+]=[N-])c3ccccc3)cc2OC)C2CC1C2(C)C [(R)-3]	nM	60.3
COc1cc(C(C)(C)C(CCCCCN=[N+]=[N-])c2ccccc2)cc(OC)c1C1C=C(CN)C2CC1C2(C)C [(S)-1]	nM	191

Proceed to the following item.
Query: Give recorded EC50. C#CCCC(=O)NCC1=CC(c2c(OC)cc(C(C)(C)C(CCCCCN=[N+]=[N-])c3ccccc3)cc2OC)C2CC1C2(C)C [(S)-3]
Response: 30.9

---

SYSTEM NAME: hCB2R (Homo sapiens, UniProt P34972)
MEASUREMENT DESCRIPTION: TR-FRET kinetic binding assay at CB2R
Set-up: expressed in transfected cells; host or cells: HEK293-TR cells, tetracycline-induced; membrane preparations
STUDY CONDITIONS: kinetic Kd, 37 °C, hCB2R-HEK293 membranes, mean N = 3
Can you tell me pKd for the items I'm about to list?
Give bare numbers, as −log10 of the molar value.

MOLECULE	pKd
COc1cc(C(C)(C)C(CCCCCN=[N+]=[N-])c2ccccc2)cc(OC)c1C1C=C(CN)C2CC1C2(C)C [(R)-1]	7.94

I would be grateful if you could provide pKd for each of the following entries.
1. C#CCCC(=O)NCC1=CC(c2c(OC)cc(C(C)(C)C(CCCCCN=[N+]=[N-])c3ccccc3)cc2OC)C2CC1C2(C)C [(R)-3]
2. COc1cc(C(C)(C)C(CCCCCN=[N+]=[N-])c2ccccc2)cc(OC)c1C1C=C(CN)C2CC1C2(C)C [(S)-1]
3. C#CCCC(=O)NCC1=CC(c2c(OC)cc(C(C)(C)C(CCCCCN=[N+]=[N-])c3ccccc3)cc2OC)C2CC1C2(C)C [(S)-3]

Response:
[9.59, 6.91, 8.95]

---

Can you tell me kon for the items I'm about to list?
SYSTEM NAME: hCB2R (Homo sapiens, UniProt P34972)
MEASUREMENT DESCRIPTION: TR-FRET kinetic binding assay at CB2R
Design: expressed in transfected cells; host or cells: HEK293-TR cells, tetracycline-induced; membrane preparations
STUDY CONDITIONS: 37 °C, hCB2R-HEK293 membranes, mean N = 3

Observe how each entry below is paired with its result.
MOLECULE	kon
C#CCCC(=O)NCC1=CC(c2c(OC)cc(C(C)(C)C(CCCCCN=[N+]=[N-])c3ccccc3)cc2OC)C2CC1C2(C)C [(R)-3]	88.7 10^6 M^–1 min^–1
COc1cc(C(C)(C)C(CCCCCN=[N+]=[N-])c2ccccc2)cc(OC)c1C1C=C(CN)C2CC1C2(C)C [(R)-1]	12.0 10^6 M^–1 min^–1
C#CCCC(=O)NCC1=CC(c2c(OC)cc(C(C)(C)C(CCCCCN=[N+]=[N-])c3ccccc3)cc2OC)C2CC1C2(C)C [(S)-3]	44.3 10^6 M^–1 min^–1

Query: Give recorded kon. COc1cc(C(C)(C)C(CCCCCN=[N+]=[N-])c2ccccc2)cc(OC)c1C1C=C(CN)C2CC1C2(C)C [(S)-1]
Response: 157000 M⁻¹ s⁻¹

---

Can you tell me EC50 for the items I'm about to list?
SYSTEM NAME: hCB2R (Homo sapiens, UniProt P34972)
MEASUREMENT DESCRIPTION: cAMP HTRF assay in hCB2R-CHO cells
Assay type: cell-based
Set-up: expressed in transfected cells
STUDY CONDITIONS: hCB2R-CHO cells, forskolin stimulated, mean N = 3
Give bare numbers, in nM.

Observe how each entry below is paired with its result.
COMPOUND	NUMERIC VALUE
C#CCCC(=O)NCC1=CC(c2c(OC)cc(C(C)(C)C(CCCCCN=[N+]=[N-])c3ccccc3)cc2OC)C2CC1C2(C)C [(S)-3]	40.7
COc1cc(C(C)(C)C(CCCCCN=[N+]=[N-])c2ccccc2)cc(OC)c1C1C=C(CN)C2CC1C2(C)C [(R)-1]	112

I would be grateful if you could provide EC50 for each of the following entries.
1. C#CCCC(=O)NCC1=CC(c2c(OC)cc(C(C)(C)C(CCCCCN=[N+]=[N-])c3ccccc3)cc2OC)C2CC1C2(C)C [(R)-3]
2. COc1cc(C(C)(C)C(CCCCCN=[N+]=[N-])c2ccccc2)cc(OC)c1C1C=C(CN)C2CC1C2(C)C [(S)-1]

Response:
[33.1, 2690]
